Biological target: PKR(G332S) (Homo sapiens, UniProt P30613, G332S)
Sequence (P30613 whole entry G332S): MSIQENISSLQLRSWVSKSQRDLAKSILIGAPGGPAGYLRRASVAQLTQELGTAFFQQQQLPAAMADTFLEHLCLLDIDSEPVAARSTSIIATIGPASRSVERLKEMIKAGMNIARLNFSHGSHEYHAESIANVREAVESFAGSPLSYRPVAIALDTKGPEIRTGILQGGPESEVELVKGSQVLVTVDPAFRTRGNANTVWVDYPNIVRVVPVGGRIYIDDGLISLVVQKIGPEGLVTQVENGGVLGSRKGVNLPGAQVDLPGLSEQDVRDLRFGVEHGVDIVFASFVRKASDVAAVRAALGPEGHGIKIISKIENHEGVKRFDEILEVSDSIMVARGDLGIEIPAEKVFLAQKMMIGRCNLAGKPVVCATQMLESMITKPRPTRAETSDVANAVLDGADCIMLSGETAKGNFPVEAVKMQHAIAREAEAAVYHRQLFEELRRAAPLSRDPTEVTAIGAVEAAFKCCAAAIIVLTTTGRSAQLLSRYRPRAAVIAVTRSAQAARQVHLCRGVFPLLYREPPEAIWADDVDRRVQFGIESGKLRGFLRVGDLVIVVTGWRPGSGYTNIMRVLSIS
Experiment: Luminescence Biochemical Assay (Kinase Glo Plus), PKR G332S mutant
Conditions: with FBP, read-out: AC50 LUM KGP FBP AC50 μM gmean (column A)
readout: AC50

Answered cases to consult:
compound	AC50
O=C(Cn1cnnn1)N1CC2=C(C1)CN(S(=O)(=O)c1ccc(OC(F)F)cc1)C2	≤ 0.1 µM
CC(=O)Nc1cc(S(=O)(=O)N2CC3=C(CN(C(=O)[C@H](O)c4ccccc4)C3)C2)ccc1F	1 to 40 µM
O=C(Cc1ncccn1)N1CC2=C(C1)CN(S(=O)(=O)c1ccc(OC(F)F)cc1)C2	0.1 to 1 µM
CN1CCOc2ccc(S(=O)(=O)N3CC4=C(CN(C(=O)NCc5ccc(F)cc5)C4)C3)cc21	1 to 40 µM

Return reported AC50 values for all items listed beneath this line.
1. O=C(NCc1ccc(F)cc1)N1CC2=C(C1)CN(S(=O)(=O)c1ccccn1)C2
2. O=C(NCc1ccc(F)cc1)N1CC2=C(C1)CN(S(=O)(=O)c1ccc3nsnc3c1)C2
3. COc1ccccc1CNC(=O)N1CC2=C(C1)CN(S(=O)(=O)c1cccc3nonc13)C2
4. O=C([C@H](O)c1ccccc1)N1CC2=C(C1)CN(S(=O)(=O)c1cccc(C(F)(F)F)n1)C2
5. O=C(Cc1cnccn1)N1CC2=C(C1)CN(S(=O)(=O)c1ccc(OC(F)F)cc1)C2

1: 1 to 40 µM; 2: 1 to 40 µM; 3: 1 to 40 µM; 4: 1 to 40 µM; 5: ≤ 0.1 µM

Return reported AC50 values for all items listed beneath this line.
1. COc1ccc(CNC(=O)N2CC3=C(C2)CN(S(=O)(=O)c2cccc4cnccc24)C3)cc1
2. O=C([C@@H](O)c1ccc2c(c1)CNCC2)N1CC2=C(C1)CN(S(=O)(=O)c1ccc(OC(F)F)cc1)C2 (single isomer, unassigned)
3. O=C(C(F)c1ccccc1)N1CC2=C(C1)CN(S(=O)(=O)c1ccc(OC(F)F)cc1)C2 (stereo not drawn)
4. O=C(NCc1cnco1)N1CC2=C(C1)CN(S(=O)(=O)c1ccc(F)cc1)C2

["1 to 40 µM", "1 to 40 µM", "≤ 0.1 µM", "0.1 to 1 µM"]

Return reported AC50 values for all items listed beneath this line.
1. COc1ccccc1CNC(=O)N1CC2=C(C1)CN(S(=O)(=O)c1ccc(OC(F)F)cc1)C2
2. O=C(NCc1cccc(F)c1)N1CC2=C(C1)CN(S(=O)(=O)c1ccc3ncsc3c1)C2

["≤ 0.1 µM", "0.1 to 1 µM"]
